systemUnderTest: C5aR polypeptide-04 (UniProt P21730)
protocolText: ELISA, polypeptide coated at 1.0 µg/mL
measuredMetric: OD450 nm (OD450 nm)

>  <binder>
2A12B2B2 (antibody, V domains shown) VH: QVQLQQPGADLVKPGASVKMSCKASGYILTTYWITWVKQRPGQGLEWIGDIHPGSGSTKYNEKFKSKATLTVDTSSSTAYMQLTRLSSEDSAVYYCARRDYWGQGTTLTVSS VL: DIQMTQTTSSLSASLGDKVTISCRASQDISNYLSWYQQKPDGTVKLLIYWISRLHSGVPSRFSGSGSGTDFSLTISNLEQEDIATYFCQQGNSLPPTFGGGTKLEVK

>  <recordedMeasurement>
2.34

$$$$
>  <binder>
43E8F5B6 (antibody, V domains shown) VH: EVQLQQSGPELVKPGASVKISCKASGYTFTDYYMSWMKQSHGKSLEWIGDINPNNGDNIYNQKFKGKATLTVDRSSSTAYMDLRSLTSEDSAVYYCARWYYYVSSFSYWYFDVWGTGTTVTVSS VL: EIVLTQSPTTMAASPGEKITITCSATSSINSNYLHWYQQKPGFSPKLLIYRTSNLASGVPARFSGSGSGTSYSLTIGTMEAEDVATYYCQQGRTIPRTFGSGTKLEIK

>  <recordedMeasurement>
0.1

$$$$
>  <binder>
5F8E2C11 (antibody, V domains shown) VH: QVQLRQSGPGLVQPSQSLSITCTVSGFSLTSYGVHWVRQSPGKGLEWLGVIWSGGSTDYNAAFISRLSISKDYSKSQIFLTMNSLQTDDTAIYYCARNSRLGNCFDYWGQGTTLTVSS VL: DIVMSQSPSSLAVSAGEKVTMSCKSSQSLLNSRTRKNYLAWYQQKPGQSPKLLIYWASTRESGVPDRFTGSGSGTDFTLTISSVQAEDLAVYYCKQSYNLPAFGGGTKLEIK

>  <recordedMeasurement>
2.52

$$$$
>  <binder>
9D5A12G7 (antibody, V domains shown) VH: QVQLKQSGPGLVQPSQSLSITCTVSGFSLTSYGVHWVRQSPGKGLEWLGVIWSGGSTDYNAAFISRLSISKDNSKSQVFFKMNSLQADDTAIYYCARNGLLGNAMDYWGQGTSVTVSS VL: DIVMSQSPSSLAVSAGEKVTMSCKSSQSLLSSRTRKNYLAWYQQKPGQSPKLLIYWASTRESGVPDRFTGSGSGTDFTLTISSVQTEDLAVYYCKQSYNLLTFGAGTTLELK

>  <recordedMeasurement>
2.46

$$$$
>  <binder>
8B5D1A9 (antibody, V domains shown) VH: QVQLKQSGAELVKPGASVKISCKTSGYIFTDYYINWMKQRPGQGLEWIGKIGPGSGTTFYNEKFKGKATLTADKSSTTLYMQLSSLTAEDSAVYFCTRRGYYSSSYFYWGQGTTLTVSS VL: DIVMTQSPSSLSVSAGEKVIMSCKSSQSLLNSERQKNYLAWYQQKPGQSPKLLIYGASTRESGVPDRFTGSGSGTDFTLTISSVQAEDLAVYYCLNDHSYPLTFGAGTKLELK

>  <recordedMeasurement>
0.1

$$$$
